# pIC50 annotations
Biological target: full-length FLAG-tagged B-Raf(V600E) (Homo sapiens (Human), UniProt P15056, V600E)
Sequence (P15056 whole entry V600E): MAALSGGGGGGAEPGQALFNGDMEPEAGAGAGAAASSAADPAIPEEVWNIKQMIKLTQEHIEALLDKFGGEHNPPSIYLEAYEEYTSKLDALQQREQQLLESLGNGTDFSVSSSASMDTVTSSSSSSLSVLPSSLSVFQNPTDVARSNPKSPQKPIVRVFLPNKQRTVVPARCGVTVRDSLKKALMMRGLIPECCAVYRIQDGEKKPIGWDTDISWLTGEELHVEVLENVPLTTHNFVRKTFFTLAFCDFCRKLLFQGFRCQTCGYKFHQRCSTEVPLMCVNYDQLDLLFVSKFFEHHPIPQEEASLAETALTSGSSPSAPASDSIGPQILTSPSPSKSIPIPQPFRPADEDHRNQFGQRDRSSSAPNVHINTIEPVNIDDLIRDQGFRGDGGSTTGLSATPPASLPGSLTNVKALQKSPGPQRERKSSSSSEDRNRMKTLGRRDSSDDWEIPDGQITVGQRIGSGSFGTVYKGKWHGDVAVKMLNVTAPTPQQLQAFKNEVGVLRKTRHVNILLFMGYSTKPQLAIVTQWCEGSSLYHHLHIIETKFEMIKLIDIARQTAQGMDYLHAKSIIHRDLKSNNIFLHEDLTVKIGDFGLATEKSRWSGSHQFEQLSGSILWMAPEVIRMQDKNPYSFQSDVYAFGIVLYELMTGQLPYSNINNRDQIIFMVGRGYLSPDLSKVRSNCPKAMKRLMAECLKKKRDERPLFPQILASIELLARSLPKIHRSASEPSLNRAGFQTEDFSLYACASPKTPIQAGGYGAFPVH
Experiment: BRAF V600E enzyme assay (TR-FRET competitive displacement of fluorescent tracer)
Assay type: binding
Settings: averaged IC50; 60 min at ambient temperature; 11-point dosing, top dose 10 μM
pIC50: −log10 of the molar value.

compound: CCCS(=O)(=O)Nc1ccc(Cl)c(Nc2ccc3ncn(C)c(=O)c3c2C)c1Cl [Example 14]
pIC50: 7.86
--
compound: Cc1c(Oc2c(F)ccc(NS(=O)(=O)CCCF)c2F)ccc2ncn(C)c(=O)c12 [Example 56]
pIC50: 7.89
--
compound: CCCS(=O)(=O)Nc1ccc(F)c(Oc2ccc3ncn(C)c(=O)c3c2C)c1F [Example 71]
pIC50: 7.79
